residual activity for assorted compounds
assay system: Serine/threonine-protein kinase STK11 (Homo sapiens)
Sequence (whole entry): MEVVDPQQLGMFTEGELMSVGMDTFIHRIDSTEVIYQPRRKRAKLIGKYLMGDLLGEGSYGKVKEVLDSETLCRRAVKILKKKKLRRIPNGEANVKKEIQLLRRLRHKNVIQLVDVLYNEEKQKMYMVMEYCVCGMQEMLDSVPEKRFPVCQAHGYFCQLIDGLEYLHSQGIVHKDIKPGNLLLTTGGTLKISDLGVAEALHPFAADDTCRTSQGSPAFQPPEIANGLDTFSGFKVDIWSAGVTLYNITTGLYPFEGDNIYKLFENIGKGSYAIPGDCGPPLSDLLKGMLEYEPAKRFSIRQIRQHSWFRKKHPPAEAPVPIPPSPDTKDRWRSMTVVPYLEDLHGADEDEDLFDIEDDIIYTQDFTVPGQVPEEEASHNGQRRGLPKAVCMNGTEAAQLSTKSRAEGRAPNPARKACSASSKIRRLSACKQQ
condition context: at 1 µM
Provide only the numeric value, understood in %.

Past entries and their recorded results:
Cn1nc2c3c(cccc31)C(=O)c1ccccc1-2 : 102
O=C(Nc1cccc(Nc2nccc(Nc3cccc(C(F)(F)F)c3)n2)c1)C1CC1 : 100
Oc1ccc(Nc2nc(-c3ccc(Cl)cc3)cs2)cc1 : 108
CNc1cc2c(Nc3cccc(Br)c3)ncnc2cn1 : 99
Cc1cncc2cccc(S(=O)(=O)N3CCCN(C(=O)CN)C[C@H]3C)c12 : 91
c1ccc(-c2n[nH]cc2-c2ccnc3ccccc23)nc1 : 96

### Prompt # query: residual activity of entry COc1ccc(S(=O)(=O)N(CCO)c2ccccc2CN(C)C/C=C/c2ccc(Cl)cc2)cc1
### Response 100

### Prompt # query: residual activity of entry c1ccc2c(-c3ccncc3)c[nH]c2c1
### Response 100

### Prompt # query: residual activity of entry CCC(=O)Nc1ccc2ncnc(Nc3cccc(Br)c3)c2c1
### Response 96

### Prompt # query: residual activity of entry CC(=O)O/N=C1\C(=C2\C(=O)Nc3cc(Br)ccc32)Nc2ccccc21
### Response 98

### Prompt # query: residual activity of entry COc1cc2ncnc(Nc3ccc(O)c(Br)c3)c2cc1OC
### Response 106
